Recorded SH2 binding enrichment for the following sequences
# Measurement target: Grb2 SH2 (UniProt P62993)
# Sequence (P62993 whole entry, looked up): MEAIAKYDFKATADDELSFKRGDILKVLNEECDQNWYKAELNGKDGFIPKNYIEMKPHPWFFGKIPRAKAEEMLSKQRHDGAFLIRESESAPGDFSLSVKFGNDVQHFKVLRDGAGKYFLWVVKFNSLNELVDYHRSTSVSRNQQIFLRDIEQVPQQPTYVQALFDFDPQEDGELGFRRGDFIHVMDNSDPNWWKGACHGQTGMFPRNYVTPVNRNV
# Assay: SH2 binding enrichment of the phosphorylated peptide, bacterial display (enrichment ratio); higher = better substrate or ligand; peptides without Tyr show the background
API doc: respond with a numeric literal and nothing else, no unit.

INSERT INTO assay_data (sequence_code, measured_value) VALUES
  ('AWVARYIFKRL [LPCAT3_Y348]', 1.05),
  ('HVKHNYECLVY [XRCC5_Y416_I412V]', 1.03),
  ('SIKNKYVTALF [KCNH2_Y611_D609N_YF]', 0.994),
  ('CTTIHQNFMCN [TP53_Y234_Y234Q_YF]', 1.2);

Problem: // query SH2 binding enrichment value for entry AACQHYGVHTC [NR4A2_Y275_R278H]
Solution: 0.903

Problem: Another sequence: NNKKDYYDMYE [SLC26A3_Y526_K521N]
Solution: 0.753

Problem: Another sequence: YQASYYRRGDR [LTK_Y677_R673Q]
Solution: 0.684

Problem: Another sequence: IGKDLYANNVL [ACTA2_Y296_R292G]
Solution: 0.844

Problem: Another sequence: SLDLSYYPTSS [EMD_Y181]
Solution: 0.921

Problem: Another sequence: TTSQPYRCLCS [USH2A_Y534]
Solution: 1.24

Problem: Another sequence: CCNHPYLINGA [CHD7_Y1256]
Solution: 0.804

Problem: Another sequence: PEVRRHVLPLN [RPE65_Y368_Y368H]
Solution: 0.834

Problem: Another sequence: AQRKLYRNVML [ZNF569_Y33]
Solution: 1.26

Problem: Another sequence: LFSNAYLNDLA [ALDH1A1_Y119_YF]
Solution: 4.23

Problem: Another sequence: SFCFRYCCAAR [SUMF1_Y344_R345C_YF]
Solution: 1.02

Problem: Another sequence: DLDTEYGSGFP [RNASEH2A_Y206_D205E_YF]
Solution: 1.06

###

# Measurement target: Jak2 (UniProt O60674)
# Sequence (O60674 whole entry, looked up): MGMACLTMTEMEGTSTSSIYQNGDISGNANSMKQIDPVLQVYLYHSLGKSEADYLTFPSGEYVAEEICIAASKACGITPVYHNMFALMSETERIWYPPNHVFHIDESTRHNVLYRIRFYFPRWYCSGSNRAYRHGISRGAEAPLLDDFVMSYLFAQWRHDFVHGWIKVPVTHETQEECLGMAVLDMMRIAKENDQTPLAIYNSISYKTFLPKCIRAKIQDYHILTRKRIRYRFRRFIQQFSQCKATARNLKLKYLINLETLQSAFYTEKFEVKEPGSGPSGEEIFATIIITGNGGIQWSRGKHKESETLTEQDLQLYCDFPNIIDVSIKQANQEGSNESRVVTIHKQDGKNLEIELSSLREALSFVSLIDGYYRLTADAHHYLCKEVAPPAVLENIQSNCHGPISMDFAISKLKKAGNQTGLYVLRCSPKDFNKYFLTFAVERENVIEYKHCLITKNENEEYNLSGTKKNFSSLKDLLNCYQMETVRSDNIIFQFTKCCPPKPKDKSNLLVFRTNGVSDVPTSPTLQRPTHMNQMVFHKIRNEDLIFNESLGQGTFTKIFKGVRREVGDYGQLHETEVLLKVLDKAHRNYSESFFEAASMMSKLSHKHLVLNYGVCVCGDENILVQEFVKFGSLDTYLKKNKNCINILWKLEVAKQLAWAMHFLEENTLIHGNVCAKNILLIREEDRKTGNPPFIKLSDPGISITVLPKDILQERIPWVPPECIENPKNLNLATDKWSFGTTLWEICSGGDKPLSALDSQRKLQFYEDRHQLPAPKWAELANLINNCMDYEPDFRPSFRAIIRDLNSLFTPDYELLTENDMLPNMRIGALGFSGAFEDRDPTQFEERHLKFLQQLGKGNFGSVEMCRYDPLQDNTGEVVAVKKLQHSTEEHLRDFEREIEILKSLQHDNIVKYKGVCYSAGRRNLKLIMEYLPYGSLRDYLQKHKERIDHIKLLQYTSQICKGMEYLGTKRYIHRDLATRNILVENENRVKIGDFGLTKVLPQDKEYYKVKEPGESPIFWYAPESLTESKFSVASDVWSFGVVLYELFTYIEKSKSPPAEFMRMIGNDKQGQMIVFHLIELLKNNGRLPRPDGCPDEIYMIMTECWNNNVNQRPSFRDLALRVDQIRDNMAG
# Assay: phosphorylation enrichment, bacterial display (enrichment ratio); higher = better substrate or ligand; peptides without Tyr show the background
Recorded phosphorylation enrichment for the following sequences
API doc: respond with a numeric literal and nothing else, no unit.

INSERT INTO assay_data (sequence_code, measured_value) VALUES
  ('VRTGIYHGGKP [PIK3CA_Y361_E365K]', 0.464);

Problem: Please tell me: phosphorylation enrichment of KELSNYKHLTL [SLIT2_Y776] , system Jak2 (UniProt O60674)?
Solution: 0.543

Problem: Another sequence: VNYGAYINNFK [GLB1_Y488_D491N]
Solution: 0.932

Problem: Another sequence: ASLEAYCKHKY [RXRA_Y403]
Solution: 0.799

Problem: Another sequence: KVMANYMFKAG [MAML2_Y513_YF]
Solution: 0.519

Problem: Another sequence: QAFSWYQHQRA [NDST1_Y714_R709Q_YF]
Solution: 1.43

Problem: Another sequence: TLNHQYDFTFH [CSNK1A1_Y292_D297H_YF]
Solution: 0.738

###

# Measurement target: Fes (UniProt P07332)
# Sequence (P07332 whole entry, looked up): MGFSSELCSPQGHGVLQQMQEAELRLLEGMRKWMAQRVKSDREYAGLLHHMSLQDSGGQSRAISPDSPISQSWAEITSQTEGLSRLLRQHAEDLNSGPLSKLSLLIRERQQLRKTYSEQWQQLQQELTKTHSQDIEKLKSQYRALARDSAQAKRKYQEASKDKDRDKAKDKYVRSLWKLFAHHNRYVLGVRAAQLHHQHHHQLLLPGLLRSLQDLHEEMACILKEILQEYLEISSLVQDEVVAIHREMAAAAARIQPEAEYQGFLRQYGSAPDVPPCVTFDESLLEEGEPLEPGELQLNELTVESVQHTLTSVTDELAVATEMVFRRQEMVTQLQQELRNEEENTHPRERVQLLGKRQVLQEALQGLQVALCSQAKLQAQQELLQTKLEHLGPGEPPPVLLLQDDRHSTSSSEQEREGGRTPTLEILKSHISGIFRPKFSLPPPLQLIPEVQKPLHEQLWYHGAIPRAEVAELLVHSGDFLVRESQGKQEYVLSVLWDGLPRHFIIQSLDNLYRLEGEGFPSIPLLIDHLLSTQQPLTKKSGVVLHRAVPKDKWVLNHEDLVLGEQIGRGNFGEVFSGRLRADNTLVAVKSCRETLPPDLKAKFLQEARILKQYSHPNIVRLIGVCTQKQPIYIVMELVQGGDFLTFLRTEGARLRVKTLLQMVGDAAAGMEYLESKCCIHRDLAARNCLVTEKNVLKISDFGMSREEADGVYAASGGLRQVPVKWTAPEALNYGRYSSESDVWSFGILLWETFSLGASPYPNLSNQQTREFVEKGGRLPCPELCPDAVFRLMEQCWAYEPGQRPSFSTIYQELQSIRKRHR
# Assay: phosphorylation enrichment, bacterial display (enrichment ratio); higher = better substrate or ligand; peptides without Tyr show the background
// label = criterion met if phosphorylation enrichment is not less than 1, otherwise criterion not met

Some solved cases for reference:
INSERT INTO results (sequence_code, label_value) VALUES
  ('VVQGIYGFHHF [UFSP2_Y285_YF]', 'criterion met'),
  ('RSAGKYDVFLI [MECP2_Y120_YF]', 'criterion not met'),
  ('VLALWYFFLTH [ZDHHC23_Y127_YF]', 'criterion met'),
  ('AFSLKYDQQTQ [SYTL4_Y366_E367D]', 'criterion met'),
  ('DLDATYRPMYS [JUP_Y701_M697L]', 'criterion not met');

Problem: Reported phosphorylation enrichment at or above 1? AEDKPYAELWM [MPI_Y46]
Solution: criterion met

Problem: Another sequence: QITQVCGFYDE [PPP2CA_Y127_Y127C]
Solution: criterion met

Problem: Another sequence: LITTLYSGFLG [KCNQ1_Y267_I268S]
Solution: criterion met

Problem: Another sequence: SIKNKYVTALF [KCNH2_Y611_D609N_YF]
Solution: criterion not met

Problem: Another sequence: MIRSTYALGGL [CPS1_Y590_A589T]
Solution: criterion not met

Problem: Another sequence: LADMNYVHCDL [EPHB2_Y742_R745C]
Solution: criterion not met

Problem: Another sequence: FYDANYDGKEY [MAPRE2_Y162]
Solution: criterion met

Problem: Another sequence: EHVMPYAANKN [GRIN2A_Y1431]
Solution: criterion not met

###

Recorded phosphorylation enrichment for the following sequences
# Measurement target: MERTK (UniProt Q12866)
# Sequence (Q12866 whole entry, looked up): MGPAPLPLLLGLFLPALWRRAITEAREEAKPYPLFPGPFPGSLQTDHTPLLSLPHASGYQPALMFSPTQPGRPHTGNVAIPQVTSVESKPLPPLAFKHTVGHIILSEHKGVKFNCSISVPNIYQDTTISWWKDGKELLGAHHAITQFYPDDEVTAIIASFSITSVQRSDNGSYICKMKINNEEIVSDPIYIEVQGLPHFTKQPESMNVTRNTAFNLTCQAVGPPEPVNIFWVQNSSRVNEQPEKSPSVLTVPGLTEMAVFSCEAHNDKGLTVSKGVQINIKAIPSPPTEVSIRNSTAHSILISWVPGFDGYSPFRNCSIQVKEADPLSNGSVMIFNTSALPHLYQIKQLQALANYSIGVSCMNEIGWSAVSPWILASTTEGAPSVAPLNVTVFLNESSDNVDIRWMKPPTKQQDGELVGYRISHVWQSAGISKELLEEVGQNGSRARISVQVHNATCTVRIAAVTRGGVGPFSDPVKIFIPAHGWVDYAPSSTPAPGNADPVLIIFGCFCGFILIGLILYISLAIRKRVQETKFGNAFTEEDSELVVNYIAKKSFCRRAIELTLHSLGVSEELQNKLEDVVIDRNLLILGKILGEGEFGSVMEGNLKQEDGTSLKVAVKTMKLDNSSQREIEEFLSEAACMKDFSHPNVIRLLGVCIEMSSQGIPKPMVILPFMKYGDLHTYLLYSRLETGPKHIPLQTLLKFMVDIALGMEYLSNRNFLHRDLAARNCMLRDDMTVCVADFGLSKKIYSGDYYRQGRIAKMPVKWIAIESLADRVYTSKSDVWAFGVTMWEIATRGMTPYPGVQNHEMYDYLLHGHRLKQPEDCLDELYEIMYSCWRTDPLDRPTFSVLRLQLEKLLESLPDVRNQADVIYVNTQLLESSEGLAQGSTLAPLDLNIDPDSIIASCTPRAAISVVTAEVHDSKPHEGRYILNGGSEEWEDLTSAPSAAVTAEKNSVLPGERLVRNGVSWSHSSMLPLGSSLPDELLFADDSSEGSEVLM
# Assay: phosphorylation enrichment, bacterial display (enrichment ratio); higher = better substrate or ligand; peptides without Tyr show the background
API doc: respond with a numeric literal and nothing else, no unit.

Worked cases, answers included:
INSERT INTO results (sequence_code, measured_value) VALUES
  ('FASVEYQEALS [GALNS_Y461_A459V]', 0.416),
  ('YSTSPYLLEAA [BRIP1_Y921]', 1.38),
  ('EKHGQYLIGHG [EPHB4_Y581_D576E]', 0.46),
  ('WIGRKYKKVRF [F8_Y442_R437W]', 0.527);

Problem: // query phosphorylation enrichment value for entry AAVPAYDKIRV [STXBP2_Y401]
Solution: 0.48

Problem: Another sequence: MFNPCYGLFEF [NEDD4L_Y680_Y679C_YF]
Solution: 2.85

Problem: Another sequence: CERLPYDANKW [FLT1_Y815_S818N]
Solution: 0.415

###

# Measurement target: EPHB1 (UniProt P54762)
# Sequence (P54762 whole entry, looked up): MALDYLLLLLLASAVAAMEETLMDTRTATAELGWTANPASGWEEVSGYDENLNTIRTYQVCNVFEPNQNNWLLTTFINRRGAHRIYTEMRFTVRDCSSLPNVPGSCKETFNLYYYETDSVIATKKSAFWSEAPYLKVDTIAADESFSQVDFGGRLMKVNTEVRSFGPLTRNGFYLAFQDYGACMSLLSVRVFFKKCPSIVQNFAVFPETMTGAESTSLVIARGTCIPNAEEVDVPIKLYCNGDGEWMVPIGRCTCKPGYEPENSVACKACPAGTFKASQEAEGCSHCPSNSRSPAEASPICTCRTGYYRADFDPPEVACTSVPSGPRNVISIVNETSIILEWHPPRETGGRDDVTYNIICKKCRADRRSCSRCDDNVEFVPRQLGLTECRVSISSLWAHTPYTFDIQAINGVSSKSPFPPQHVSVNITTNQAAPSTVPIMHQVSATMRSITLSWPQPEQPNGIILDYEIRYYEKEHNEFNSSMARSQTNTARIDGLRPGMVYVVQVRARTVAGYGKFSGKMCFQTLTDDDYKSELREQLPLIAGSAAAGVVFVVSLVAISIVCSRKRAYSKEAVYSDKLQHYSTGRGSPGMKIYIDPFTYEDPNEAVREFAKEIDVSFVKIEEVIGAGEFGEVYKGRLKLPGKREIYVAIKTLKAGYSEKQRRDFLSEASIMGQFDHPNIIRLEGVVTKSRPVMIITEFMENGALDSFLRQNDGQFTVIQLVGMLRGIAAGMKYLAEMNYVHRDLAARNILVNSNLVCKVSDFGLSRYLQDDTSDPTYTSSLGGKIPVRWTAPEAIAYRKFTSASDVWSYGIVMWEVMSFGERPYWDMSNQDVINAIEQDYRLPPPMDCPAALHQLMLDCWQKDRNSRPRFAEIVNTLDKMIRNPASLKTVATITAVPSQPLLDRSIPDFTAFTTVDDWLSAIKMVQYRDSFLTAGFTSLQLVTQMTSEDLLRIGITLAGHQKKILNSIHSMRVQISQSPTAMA
# Assay: phosphorylation enrichment, bacterial display (enrichment ratio); higher = better substrate or ligand; peptides without Tyr show the background
Recorded phosphorylation enrichment for the following sequences
API doc: respond with a numeric literal and nothing else, no unit.

INSERT INTO measurements (sequence_code, assay_readout, measured_value) VALUES
  ('VGSIKYLKREW [KCNMA1_Y885_E884K]', 'phosphorylation enrichment', 0.56),
  ('FSKRIYKGMVA [PCDH15_Y931]', 'phosphorylation enrichment', 0.231),
  ('VSGIPYGQPKQ [NEU1_Y251]', 'phosphorylation enrichment', 0.349),
  ('QMQAAYQKVVA [HBD_Y131]', 'phosphorylation enrichment', 0.373),
  ('EPGNLYIAKVE [CNTN4_Y180_T176P]', 'phosphorylation enrichment', 0.454),
  ('SLGSPYGQPPR [PDLIM4_Y137]', 'phosphorylation enrichment', 0.413);

As a next step, examine the sequence that follows.
Problem: // query phosphorylation enrichment value for entry EKLQQYIAPGM [EPHB3_Y600]
Solution: 0.401

###

# Measurement target: SHP2-C SH2
# Assay: SH2 binding enrichment of the phosphorylated peptide, bacterial display (enrichment ratio); higher = better substrate or ligand; peptides without Tyr show the background
Assay readout: SH2 binding enrichment
API doc: respond with a numeric literal and nothing else, no unit.

Worked cases, answers included:
INSERT INTO results (sequence_code, measured_value) VALUES
  ('RSSGPYGGGGQ [HNRNPA1_Y341]', 0.623),
  ('YYSSEYHYVGG [CTSC_Y345]', 1.13),
  ('PIFLFYLMDLS [ITGB2_Y131_D128Y_YF]', 0.874),
  ('GPIIRYDLGGA [CYP11B1_Y81_F79I]', 0.851),
  ('HVEAVYIDIAD [PITPNA_Y140]', 0.647),
  ('SVVVPYEPPKV [TP53_Y220_E224K]', 0.512);

Problem: // query SH2 binding enrichment value for entry FEPWVYSFSFE [PRKDC_Y647_YF]
Solution: 0.738

Problem: Another sequence: HCFNSYTFPRL [PAK7_Y316_S312C_YF]
Solution: 0.574

Problem: Another sequence: DRTGHYLCNAC [GATA1_Y223]
Solution: 0.595

Problem: Another sequence: NDLMEYPKQHG [ASS1_Y163_A164P]
Solution: 0.571

Problem: Another sequence: NHQFDYTFDWT [CSNK1A1_Y294_YF]
Solution: 0.829

Problem: Another sequence: TVLEPYTDPYY [ZC3H18_Y367_A368T]
Solution: 0.456

Problem: Another sequence: DAVAVCHGKIS [SH2D1A_Y7_Y7C]
Solution: 0.539

Problem: Another sequence: SEQNNYSRVAN [CWC22_Y797_R794Q]
Solution: 3.97

###

# Measurement target: EPHB2 (UniProt P29323)
# Assay: phosphorylation enrichment, bacterial display (enrichment ratio); higher = better substrate or ligand; peptides without Tyr show the background
// label = label 1 if phosphorylation enrichment is not less than 0.6, otherwise label 0

INSERT INTO measurements (sequence_code, measurement_target, label_value) VALUES
  ('EEGNPSYSSAR [MCCC2_Y520_Y520S]', 'EPHB2 (UniProt P29323)', 'label 0'),
  ('NKEAICSGYIR [SMCHD1_Y283_Y283C]', 'EPHB2 (UniProt P29323)', 'label 0'),
  ('FGLTLYPNSRE [MEP1A_Y472_V469L]', 'EPHB2 (UniProt P29323)', 'label 0'),
  ('RPFFLYVAFHD [SGSH_Y174]', 'EPHB2 (UniProt P29323)', 'label 0'),
  ('PEADKYRLPFA [FGG_Y300_T303P_YF]', 'EPHB2 (UniProt P29323)', 'label 1');

Problem: Reported phosphorylation enrichment at or above 0.6? MHDKEYFSVHN [MET_Y1234_Y1230H_YF]
Solution: label 1

Problem: Another sequence: PGQRVYVVAER [SHH_Y316]
Solution: label 0

Problem: Another sequence: FSEVRYVKEPY [HIPK4_Y170]
Solution: label 0

Problem: Another sequence: PNAFIYVVQLP [L1CAM_Y420_A415P_YF]
Solution: label 1

Problem: Another sequence: TSSAGYRAAEG [COL6A3_Y543]
Solution: label 0
